system: CCRF-CEM; test: NCI tumour cell line growth inhibition, 48 h
Activity calls are given as the source filed them. No stated cut-off is given here; in the data, active = GI50 up to about 1.1 µM and inactive = higher.
Labels: active, inactive

- COc1ccc(/C=C(\C(=O)OCC(C)C)c2ccc(OC)c(OC)c2)cc1OC: inactive
- CC(=O)O[C@H]1C(=O)O[C@@H]2C[C@H]3C(C)=CC(=O)[C@@H](O)[C@]3(C)[C@H]3[C@@]4(O)OC[C@]32[C@@H]1[C@@H](C)[C@H]4O: active
- CN(C)c1ccc(/N=N\c2cccc3ccoc23)cc1: inactive
- CC1(C)CCC[C@@]2(C)C1C[C@H](O)[C@@]1(C)O[C@@](C)([C@H](O)CO)CCC21 (stereo not given in full): inactive
- N#CC(C#N)=C(C(C#N)C#N)C(C#N)C#N: inactive
- O=C(C[C@@H]1NCCC[C@H]1O)Cn1cnc2cc(Br)c(Cl)cc2c1=O: active
- COc1ccc(C[C@H](N)C(=O)N2C[C@H](CO)C[C@H](n3cnc4c(N(C)C)ncnc43)C2)cc1: inactive
- CC(C)(Br)C(Br)CCC1(C(Br)CBr)CO1 (stereo not given): inactive
- O=P(O)(O)CN1CCNCCN(CP(=O)(O)O)CCNCC1: inactive
- O=C(c1nc2ccc(Cl)cc2nc1O)C(O)c1ccc2c(c1)OCO2 (stereo not given): inactive
- COC(=O)C1C=CN(N(C)C)C2=C1C(=O)c1c(O)cccc1C2=O (stereo not given): inactive
- CCN(CC)CCSc1c2ccccc2nc2c(OC)ccc(OC)c12: inactive
- Cc1ccc(S(=O)(=O)NNCNC(=O)c2ccccc2)cc1: inactive
- CCCC1(N)CC(OC)OC(C)C1O (stereo not given): inactive
- CN(CC(=O)O)c1ncc2c(n1)-c1ccccc1OC2: inactive
- CCCS(=O)(=O)Nc1ccc(Nc2c3ccccc3nc3ccccc23)c(OC)c1: active
- COc1ccc(C2=NN(C(=N)S)C(c3ccccc3)C2)cc1 (stereo not given): inactive
- Cc1c(N)nc([C@H](CC(N)=O)NC[C@H](N)C(N)=O)nc1C(=O)N[C@H](C(=O)N[C@H](C)[C@@H](O)CC(=O)N[C@H](C(=O)NC(O[C@@H]1O[C@@H](C)[C@@H](N)[C@@H](O)[C@H]1O)C(O)c1nc(-c2nc(C(=O)NCCC[S+](C)C)cs2)cs1)[C@@H](C)O)[C@H](O[C@@H]1O[C@@H](CO)[C@@H](O)[C@H](O)[C@@H]1O[C@H]1O[C@H](CO)[C@@H](O)[C@H](OC(N)=O)[C@@H]1O)c1c[nH]cn1 (stereo not given in full): inactive
- CS(=O)(=O)OCCN(CCOS(C)(=O)=O)c1ccc(/C=N/c2ccc3oc(=O)ccc3c2)cc1: active
- COc1ccc(NC=O)c(C(O)CCNC(C)=O)c1 (stereo not given): inactive
- COc1cc2c(cc1O)Cc1c-2[n+](C)cc2cc(OC)c(OC)cc12: active
- COc1ccc2c(c1)[C@@H](NC(C)=O)CCc1cc(OC)c(OC)c(OC)c1-2: active
- Cc1ccc(S(=O)(=O)OC2CN3CCC2CC3)cc1 (stereo not given): inactive
- Cc1ccc(C(=O)/C=C2/Nc3ccc([N+](=O)[O-])cc3N/C2=C/C(=O)c2ccc(C)cc2)cc1: inactive
- Cc1c(/N=N/c2ccccc2)c(-c2ccccc2)n(C2OC(CO)C(O)C(O)C2O)c(=S)c1C#N (stereo not given): inactive
- COC(=O)C1=CNC(C(=O)OC)=NN1: inactive
- Cc1ccnc2nc(-c3ccc(Cl)cc3)cc(O)c12: inactive
- Fc1ccc(C(OCCN2CCC3CCC(C2)N3C/C=C/c2ccco2)c2ccc(F)cc2)cc1 (stereo not given): active
- OC[C@@H](O)[C@H]1NC[C@@H](O)[C@H]1O: inactive
- CC(=O)Oc1c(C)cc2c(c1C)C(C)(C)CN2C(=O)C(C)(C)C: inactive
- COc1cc2c(cc1OC)C(c1ccccc1CCCCl)=NCC2: inactive
- O=C(O)c1ccc(N2C=[N+]3C(=Nc4ccccc43)C2)cc1: inactive
- NC12CC3CC4C1CC1CC2C(C3)C4(N)C1: inactive
- N#C/C(C(=O)Nc1ccc(Cl)cc1)=C(/N)N1CCCCC1: inactive
- CN(C)c1nc(N)c(C#N)c(C#N)c1C#N: inactive
- O=c1[nH]c(Nc2nc3ccccc3[nH]2)nc2c1CCC2: inactive
- O=C(OCc1ccccc1)n1cccc1: inactive
- Fc1ccc(/C=C2\COCC3=C2NC(=S)NC3c2ccc(F)cc2)cc1 (stereo not given): inactive
- CCCN(CCC)CCc1ccc(OC2=CCN(C)CC2)cc1: inactive
- O=C(NCc1ccccc1)c1cc2cc(O)c(O)cc2cn1: inactive
